Would you mind telling me the reported IC50 of each entry?
MEASURED_TARGET: SIK1 (Homo sapiens, UniProt P57059)
Sequence (P57059 whole entry): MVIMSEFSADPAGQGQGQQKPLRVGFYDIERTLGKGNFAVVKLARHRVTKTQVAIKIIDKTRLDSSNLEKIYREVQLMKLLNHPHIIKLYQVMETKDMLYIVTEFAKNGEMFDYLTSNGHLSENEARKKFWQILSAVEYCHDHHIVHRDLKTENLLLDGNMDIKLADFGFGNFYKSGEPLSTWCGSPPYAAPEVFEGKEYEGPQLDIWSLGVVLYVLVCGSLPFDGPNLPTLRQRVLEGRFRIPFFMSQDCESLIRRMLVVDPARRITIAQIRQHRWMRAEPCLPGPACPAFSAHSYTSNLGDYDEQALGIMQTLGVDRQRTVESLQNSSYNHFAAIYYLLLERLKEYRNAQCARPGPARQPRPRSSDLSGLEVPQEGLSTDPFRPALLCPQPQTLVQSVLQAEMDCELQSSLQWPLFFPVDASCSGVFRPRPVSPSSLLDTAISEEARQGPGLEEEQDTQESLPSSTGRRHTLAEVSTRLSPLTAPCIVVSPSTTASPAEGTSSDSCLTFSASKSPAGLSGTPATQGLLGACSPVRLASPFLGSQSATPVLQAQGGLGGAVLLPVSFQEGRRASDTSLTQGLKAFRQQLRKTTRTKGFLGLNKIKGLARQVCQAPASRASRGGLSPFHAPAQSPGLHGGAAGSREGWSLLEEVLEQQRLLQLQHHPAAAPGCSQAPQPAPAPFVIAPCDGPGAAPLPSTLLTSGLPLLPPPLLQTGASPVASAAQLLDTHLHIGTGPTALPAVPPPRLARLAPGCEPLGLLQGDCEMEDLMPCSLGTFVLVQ

COc1cc(-c2cnc3cc(OCCN4CC(C)OC(C)C4)ccn23)cc(OC(F)F)c1C(=O)NC1CC1 (centres unmarked): 10 to 100 nM
COc1cc(-c2cnc3cc(OCC4CCC(F)(F)C4)ccn23)cc(OC(F)F)c1C(=O)NC1CC1 (centres unmarked): 0.01 to 10 nM
COc1cc(-c2cnc3cc(OCCC4CCCN4C)ccn23)cc(OC(F)F)c1C(=O)NC1CC1 (centres unmarked): 10 to 100 nM
O=C1c2c(cc(-c3cnc4cc(OCCN5CCOCC5)ccn34)cc2OC(F)F)CCN1CC(F)F: 100 to 500 nM

Batch of 2 molecules: report IC50 for each.
1. COc1cc(-c2cnc3cc(OCC4CN(C)C4)ccn23)cc(OC(F)F)c1C(=O)NC1CC1
2. COc1cc(-c2cnc3cc(OC[C@H]4CCN(C(C)C)C4)ccn23)cc(OC(F)F)c1C(=O)NC1CC1

OUTPUT:
1. 10 to 100 nM
2. 10 to 100 nM

Batch of 4 molecules: report IC50 for each.
1. CCNCCOc1ccn2c(-c3cc(OC)c(C(=O)NC4CC4)c(OC(F)F)c3)cnc2c1
2. COc1cc(-c2cnc3cc(OCCN4CC[C@H](F)C4)ccn23)cc(OC(F)F)c1C(=O)NC1CC1
3. COc1cc(-c2cnc3cc(OC4CCOCC4)ccn23)cc(OC)c1C(=O)NCC(F)(F)F
4. CNC(C)(C)COc1ccn2c(-c3cc(OC)c(C(=O)NC4CC4)c(OC(F)F)c3)cnc2c1

OUTPUT:
1. 10 to 100 nM
2. 10 to 100 nM
3. > 500 nM
4. 100 to 500 nM

----------
MEASURED_TARGET: SIK3 (Homo sapiens, UniProt Q9Y2K2)
Sequence (Q9Y2K2 whole entry): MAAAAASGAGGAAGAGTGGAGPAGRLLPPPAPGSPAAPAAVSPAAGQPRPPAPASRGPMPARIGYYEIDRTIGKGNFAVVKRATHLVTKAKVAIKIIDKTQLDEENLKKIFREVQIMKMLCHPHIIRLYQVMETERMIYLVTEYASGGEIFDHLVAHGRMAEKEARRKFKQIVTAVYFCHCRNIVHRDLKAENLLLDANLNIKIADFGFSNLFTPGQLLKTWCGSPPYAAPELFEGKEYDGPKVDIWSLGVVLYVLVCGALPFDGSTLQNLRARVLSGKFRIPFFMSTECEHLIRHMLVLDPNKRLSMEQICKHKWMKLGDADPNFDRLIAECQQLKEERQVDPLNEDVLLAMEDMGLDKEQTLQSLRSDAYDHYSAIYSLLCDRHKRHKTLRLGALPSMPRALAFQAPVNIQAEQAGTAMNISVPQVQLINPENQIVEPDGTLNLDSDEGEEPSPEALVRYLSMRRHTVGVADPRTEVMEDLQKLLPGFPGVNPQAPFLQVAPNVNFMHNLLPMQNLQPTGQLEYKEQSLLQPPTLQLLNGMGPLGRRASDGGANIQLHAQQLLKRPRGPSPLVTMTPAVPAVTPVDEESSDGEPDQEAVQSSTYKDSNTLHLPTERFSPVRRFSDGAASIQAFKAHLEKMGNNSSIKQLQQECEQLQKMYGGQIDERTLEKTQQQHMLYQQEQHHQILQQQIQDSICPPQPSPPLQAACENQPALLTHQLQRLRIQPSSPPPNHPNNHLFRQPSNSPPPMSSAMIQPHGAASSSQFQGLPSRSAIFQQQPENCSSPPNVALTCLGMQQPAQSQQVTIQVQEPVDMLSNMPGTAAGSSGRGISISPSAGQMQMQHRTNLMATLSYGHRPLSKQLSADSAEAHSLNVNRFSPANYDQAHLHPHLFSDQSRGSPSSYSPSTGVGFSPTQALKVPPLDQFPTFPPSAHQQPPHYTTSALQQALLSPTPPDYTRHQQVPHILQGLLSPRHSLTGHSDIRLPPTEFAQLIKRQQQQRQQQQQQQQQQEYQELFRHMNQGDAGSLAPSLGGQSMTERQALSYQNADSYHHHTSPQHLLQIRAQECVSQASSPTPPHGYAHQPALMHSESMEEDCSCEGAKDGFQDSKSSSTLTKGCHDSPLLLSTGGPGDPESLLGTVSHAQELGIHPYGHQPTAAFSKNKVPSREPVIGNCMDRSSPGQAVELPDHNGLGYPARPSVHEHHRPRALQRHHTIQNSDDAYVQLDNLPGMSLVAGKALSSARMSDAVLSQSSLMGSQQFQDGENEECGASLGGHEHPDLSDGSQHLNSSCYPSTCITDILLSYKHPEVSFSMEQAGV
MEASURED_QUANTITY: IC50

Guide cases for IC50, answers given:
COC(=O)N1CCCCC1COc1ccn2c(-c3cc(OC)c(C(=O)NC4CC4)c(OC(F)F)c3)cnc2c1 (stereo not drawn): 0.01 to 10 nM
COc1cc(-c2cnc3cc(OCCCN4CCC4)ccn23)cc(OC(F)F)c1C(=O)NC1CC1: 0.01 to 10 nM

INPUT: For SIK3 (Homo sapiens, UniProt Q9Y2K2), provide IC50 of COc1cc(-c2cnc3cc(Oc4ccccc4)ccn23)cc(OC(F)F)c1C(=O)NC1CC1 please.
OUTPUT: 0.01 to 10 nM

----------
MEASURED_TARGET: SIK1 (Homo sapiens)
MEASURED_QUANTITY: IC50

COc1cc(-c2cnc3cc(OCCCN4CCCCC4)ccn23)cc(OC(F)F)c1C(=O)N1CC(C#N)C1 [Cpd 357]: 10 to 100 nM
COc1cc(-c2cnc3cc(OCc4cocn4)ccn23)cc(OC(F)F)c1C(=O)NC1CC1 [compound 60]: 10 to 100 nM
COc1cc(-c2cnc3cc(OCC4CN(C)CCO4)ccn23)cc(OC(F)F)c1C(=O)NC1CC1 (stereo not shown) [compound 82]: 10 to 100 nM
CCOCCOc1cc(-c2cnc3cc(OCCN(C)C)ccn23)cc(OC)c1C(=O)NC1CC1 [Cpd 56]: > 500 nM
COc1cc(-c2cnc3cc(OCCN(C)c4ccccn4)ccn23)cc(OC(F)F)c1C(=O)NC1CC1 [Cpd 183]: 0.01 to 10 nM
COc1cc(-c2cnc3cc(OCC(C)(C)OC)ccn23)cc(OC(F)F)c1C(=O)NC1CC1 [compound 3]: 10 to 100 nM

# evaluate next
INPUT: GET /values?readout=IC50&item= COc1cc(-c2cnc3cc(OCC4(N)COC4)ccn23)cc(OC(F)F)c1C(=O)NC1CC1 [compound 170]
OUTPUT: 10 to 100 nM
